target: PCP site of the NMDA receptor (cortical NMDA receptors); test: NMDA receptor binding, [3H]-MK-801 displacement at PCP site, rat cortical membranes; details: rat cortex membranes; [3H]-MK-801 5 nM; 10 μM glutamate, 10 μM glycine; 120 min, room temperature
Counter-ions that a name gives are not always drawn.
We begin with a simple list: items and their reported IC50.
Answer in µM, number only, no unit symbol.

INSERT INTO results (molecule, observable, reading_unit, reported_value) VALUES
  ('COc1ccc(C2(C(=N)N)C3CC4CC(C3)CC2C4)cc1 (centres unmarked) [Example 8, hydrochloride]', 'IC50', 'µM', 45),
  ('Cc1ccccc1C1(C(=N)N)C2CC3CC(C2)CC1C3.Cl (centres unmarked) [Example 5, hydrochloride]', 'IC50', 'µM', 53),
  ('N=C(N)C1(c2ccc(F)cc2)C2CC3CC(C2)CC1C3 (centres unmarked) [Example 6, hydrochloride]', 'IC50', 'µM', 44),
  ('N=C(N)C1(c2ccc(Cl)cc2)C2CC3CC(C2)CC1C3 (centres unmarked) [Example 7, hydrochloride]', 'IC50', 'µM', 59);

Next up:
Task item: Please list IC50 recorded for the molecule Cc1ccc(C2(C(=N)N)C3CC4CC(C3)CC2C4)cc1 (centres unmarked) [Example 4, hydrochloride]
Reply: 105
